Data provenance is ChEMBL document CHEMBL2021865.

# Experimental system: Muscarinic acetylcholine receptor M2 (Homo sapiens)
# Sequence (P08172 whole entry): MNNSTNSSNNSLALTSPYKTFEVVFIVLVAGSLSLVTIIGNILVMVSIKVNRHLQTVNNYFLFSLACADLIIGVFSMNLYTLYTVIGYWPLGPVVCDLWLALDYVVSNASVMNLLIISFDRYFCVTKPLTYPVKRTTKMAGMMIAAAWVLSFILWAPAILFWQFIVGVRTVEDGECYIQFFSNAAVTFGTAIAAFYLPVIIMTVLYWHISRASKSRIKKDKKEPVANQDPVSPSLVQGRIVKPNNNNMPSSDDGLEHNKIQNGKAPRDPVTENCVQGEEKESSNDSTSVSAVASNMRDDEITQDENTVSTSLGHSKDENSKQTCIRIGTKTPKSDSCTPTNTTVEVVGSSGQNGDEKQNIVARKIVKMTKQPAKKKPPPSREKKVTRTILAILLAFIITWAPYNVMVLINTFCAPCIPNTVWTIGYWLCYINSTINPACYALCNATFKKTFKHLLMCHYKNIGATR
pKi: −log10 of the molar value.
Measured quantity: pKi

record_smiles=C=CCCCC[N@+]1(C)C2CCC1C[C@H](CC(C#N)(c1ccccc1)c1ccccc1)C2.[Br-] measured_quantity=pKi recorded_measurement=10.00

* * *

# Experimental system: Muscarinic acetylcholine receptor M3 (Homo sapiens, UniProt P20309)
# Sequence (P20309 whole entry): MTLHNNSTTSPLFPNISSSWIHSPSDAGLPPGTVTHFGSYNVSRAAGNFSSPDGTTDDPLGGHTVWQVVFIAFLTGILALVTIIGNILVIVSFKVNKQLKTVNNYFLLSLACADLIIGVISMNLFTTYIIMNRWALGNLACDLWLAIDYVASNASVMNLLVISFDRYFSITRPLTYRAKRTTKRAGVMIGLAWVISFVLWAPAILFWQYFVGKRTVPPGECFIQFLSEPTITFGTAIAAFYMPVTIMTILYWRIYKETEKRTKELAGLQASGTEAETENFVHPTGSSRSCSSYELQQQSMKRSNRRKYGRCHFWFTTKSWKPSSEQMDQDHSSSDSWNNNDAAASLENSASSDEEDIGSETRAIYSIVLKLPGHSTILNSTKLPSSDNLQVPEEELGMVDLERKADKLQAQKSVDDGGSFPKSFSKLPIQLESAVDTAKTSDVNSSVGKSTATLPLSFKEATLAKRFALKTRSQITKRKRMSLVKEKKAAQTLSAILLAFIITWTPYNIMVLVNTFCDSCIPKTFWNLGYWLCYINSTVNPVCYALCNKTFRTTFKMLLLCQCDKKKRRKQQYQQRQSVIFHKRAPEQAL
# Assay summary: Antagonist activity at human muscarinic acetylcholine M3 receptor expressed in CHO cells assessed as inhibition of Ach-induced calcium mobilization by FLIPR analysis
# Assay type: functional, cell-based
pIC50: −log10 of the molar value.
Measured quantity: pIC50

compound="COCC[N+]1(C)[C@@H]2CC[C@H]1C[C@@H](CC(C#N)(c1ccccc1)c1ccccc1)C2 (mixture of isomers)" recorded_measurement="> 8.00"
compound=CCCCCC[N@+]1(C)C2CCC1C[C@H](CC(C#N)(c1ccccc1)c1ccccc1)C2 recorded_measurement="> 8.00"
compound="CCC[N+]1(C)[C@@H]2CC[C@H]1C[C@@H](CC(C#N)(c1ccccc1)c1ccccc1)C2 (mixture of isomers)" recorded_measurement="> 8.00"
compound="C[N+]1(CCO)[C@@H]2CC[C@H]1C[C@@H](CC(C#N)(c1ccccc1)c1ccccc1)C2 (mixture of isomers)" recorded_measurement="> 8.00"
compound=CCCCCCCC[N@+]1(C)C2CCC1C[C@H](CC(C#N)(c1ccccc1)c1ccccc1)C2 recorded_measurement="> 8.00"
compound="CCCCCCCCCCCC[N+]1(C)[C@@H]2CC[C@H]1C[C@H](CC(C#N)(c1ccccc1)c1ccccc1)C2 (mixture of isomers)" recorded_measurement=7.19
compound="C[N+]1(CCC2CCCCC2)[C@@H]2CC[C@H]1C[C@@H](CC(C#N)(c1ccccc1)c1ccccc1)C2 (mixture of isomers)" recorded_measurement=6.96
compound="C[N+]1(CC2CCCCC2)[C@@H]2CC[C@H]1C[C@@H](CC(C#N)(c1ccccc1)c1ccccc1)C2 (mixture of isomers)" recorded_measurement=7.05
compound="C[N+]1(Cc2ccccc2)[C@@H]2CC[C@H]1C[C@@H](CC(C#N)(c1ccccc1)c1ccccc1)C2 (mixture of isomers)" recorded_measurement=6.50
compound=C[N@+]1(CC2CC2)C2CCC1C[C@@H](CC(C#N)(c1ccccc1)c1ccccc1)C2 recorded_measurement="> 8.00"
compound=C[N@+]1(CCCOc2ccccc2)C2CCC1C[C@@H](CC(C#N)(c1ccccc1)c1ccccc1)C2 recorded_measurement="> 8.00"
compound=C=CCCCC[N@+]1(C)C2CCC1C[C@@H](CC(C#N)(c1ccccc1)c1ccccc1)C2 recorded_measurement=7.49
compound=C[N@+]1(CCCc2ccccc2)C2CCC1C[C@@H](CC(C#N)(c1ccccc1)c1ccccc1)C2 recorded_measurement="> 8.00"
compound="C=CC[N+]1(C)[C@@H]2CC[C@H]1C[C@@H](CC(C#N)(c1ccccc1)c1ccccc1)C2 (mixture of isomers)" recorded_measurement="> 8.00"
compound=C[N@+]1(CCCOCc2ccccc2)C2CCC1C[C@@H](CC(C#N)(c1ccccc1)c1ccccc1)C2 recorded_measurement="> 8.00"
compound="C=CCCCC[N+]1(C)[C@@H]2CC[C@H]1C[C@@H](CC(C#N)(c1ccccc1)c1ccccc1)C2 (mixture of isomers)" recorded_measurement=7.07
compound="CC[N+]1(C)[C@@H]2CC[C@H]1C[C@@H](CC(C#N)(c1ccccc1)c1ccccc1)C2 (mixture of isomers)" recorded_measurement="> 8.00"
compound=C[N@+]1(CC2CC2)C2CCC1C[C@H](CC(C#N)(c1ccccc1)c1ccccc1)C2 recorded_measurement=7.58
compound=C[N@+]1(CCOCc2ccccc2)C2CCC1C[C@@H](CC(C#N)(c1ccccc1)c1ccccc1)C2 recorded_measurement="> 8.00"
compound="C[N+]1(CCCC#N)[C@@H]2CC[C@H]1C[C@@H](CC(C#N)(c1ccccc1)c1ccccc1)C2 (mixture of isomers)" recorded_measurement="> 8.00"
compound="C[N+]1(CC2CC2)[C@@H]2CC[C@H]1C[C@@H](CC(C#N)(c1ccccc1)c1ccccc1)C2 (mixture of isomers)" recorded_measurement="> 8.00"
compound=C[N@+]1(CCOc2ccccc2)C2CCC1C[C@@H](CC(C#N)(c1ccccc1)c1ccccc1)C2 recorded_measurement="> 8.00"
compound=CCCC[N@+]1(C)C2CCC1C[C@H](CC(C#N)(c1ccccc1)c1ccccc1)C2 recorded_measurement="> 8.00"
compound=C=CCCCC[N@+]1(C)C2CCC1C[C@H](CC(C#N)(c1ccccc1)c1ccccc1)C2 recorded_measurement="> 8.00"
compound="COCCOCC[N+]1(C)[C@@H]2CC[C@H]1C[C@@H](CC(C#N)(c1ccccc1)c1ccccc1)C2 (mixture of isomers)" recorded_measurement="> 8.00"
